Provide the reported pIC50 of each item.
method summary: Cytotoxicity, SRB method, KB
Assay type: cell-based, human
settings: human, KB (oral epithelial) cells
One number for each entry, as −log10 of the molar value.

The molecule O=c1[nH]cc(F)c(=O)[nH]1 [5-Fluorouracil, 5-fluorouracil, reference compound] showed pIC50 equal to 4.71

***
Note to self: pIC50 recorded for CCC(=O)OC1C2(O)C(OC(=O)C=CC(C)C)C3(C)CC24OC2(C)OC15C1CC(=O)OC(C6=CC(O)OC6=O)C1(C)CCC5(O2)C4(C)C3CC(=O)OC (stereo not drawn) [Compound 2, Chukrasin F] was 4.41

====

method summary: Cytotoxicity, SRB method, H460
Assay type: cell-based, human
settings: human, H460 (lung) cells
Give pIC50 for every item shown.
Numbers only, as −log10 of the molar value.

What the record says about O=c1[nH]cc(F)c(=O)[nH]1 [5-Fluorouracil, 5-fluorouracil, reference compound] : pIC50 is 4.86

Would you kindly look at the next entry?
Short answer for CCC(=O)OC1C2(O)C(OC(=O)C=CC(C)C)C3(C)CC24OC2(C)OC15C1CC(=O)OC(C6=CC(O)OC6=O)C1(C)CCC5(O2)C4(C)C3CC(=O)OC (stereo not drawn) : pIC50 was 4.22

====

method summary: Cytotoxicity, SRB method, MCF-7
Assay type: cell-based, human
settings: human, MCF-7 (human breast) cells
parameter measured: pIC50
Give bare numbers, as −log10 of the molar value.

Looking up CCC(=O)OC1C2(O)C(OC(=O)C=CC(C)C)C3(C)CC24OC2(C)OC15C1CC(=O)OC(C6=CC(O)OC6=O)C1(C)CCC5(O2)C4(C)C3CC(=O)OC (stereo not drawn) , I see its pIC50 listed as 4.63

Next:
Value of pIC50 reported for the compound O=c1[nH]cc(F)c(=O)[nH]1 [5-Fluorouracil, 5-fluorouracil, reference compound] is 4.63

====

System: KB (oral epithelial) cells
method summary: Cytotoxicity, SRB method, KB
Format: cell-based, human
Experimental: Huh-7 (hepatoma), MCF-7 (human breast), KB (oral epithelial), Hela (cervical), H460 (lung), A-549 (lung), and HepG2 (hepatocellular) cancer cell lines (provided by Shanghai Cell Bank) were maintained in RPMI 1640 at 37 ℃, supplemented with 10% FBS. Cytotoxicity was determined by the SRB method, with 5-fluorouracil (5-FU) as a positive control. The IC50 value was calculated using the GraphPad prism program.
parameter measured: pIC50
Give bare numbers, as −log10 of the molar value.

Tested on KB (oral epithelial) cells: CC(C)(O)[C@@H](O)[C@H]1C[C@@H]([C@@H]2CC[C@]3(C)C4=CC[C@H]5C(C)(C)C(=O)CC[C@]5(C)[C@H]4CC[C@@]23C)[C@H](O)O1 . Observed pIC50: 4.20

====

Test system: Hela (cervical) cells
method summary: Cytotoxicity, SRB method, Hela
Format: cell-based, human
parameter measured: pIC50
Answers are plain numbers, as −log10 of the molar value.

For this compound ( CC(C)(O)[C@@H](O)[C@H]1C[C@@H]([C@@H]2CC[C@]3(C)C4=CC[C@H]5C(C)(C)C(=O)CC[C@]5(C)[C@H]4CC[C@@]23C)[C@H](O)O1 [Compound 11, melianodiol] ), measured pIC50 is 4.06

Please turn your attention to the following entry.
get_value(item= CC(C)(O)C1OCC(C2CCC3(C)C4=CCC5C(C)(C)C(=O)CCC5(C)C4CCC23C)CC1O (stereo not drawn) [Compound 6, bourjotinolone A] , readout=pIC50) returns 4.53
